The reported numbers originate from PubChem BioAssay (NCI).

# System: HT29 colon
# method: NCI-60 one-dose screen, 48 h (100 = growth as untreated, 0 = no growth, -100 = all killed)
# assay context: 10 µM unless noted
About 83,000 compounds went through this panel and 20% of them were active in at least one assay; those are over-represented in the sample as a whole. The source made the active and inactive calls. How the source made its calls: active means growth percent below 10; inactive means the rest.
Please go through the items and note down their growth.

{"molecule": "Cc1ccc(-n2cc(/C=C/C(=O)c3ccc(S(C)(=O)=O)cc3)c(-c3ccc(S(C)(=O)=O)cc3)n2)cc1", "measure": "growth", "data value": "70.5% (inactive)"}
{"molecule": "CC[C@@](C)(NC(=O)C(C)(C)NC(=O)[C@@H](NC(=O)[C@@H]1CCCN1C(=O)C(C)(C)NC(=O)[C@H](CC(C)C)NC(=O)CNC(=O)C(C)(C)NC(=O)[C@@H](NC(=O)C(C)(C)NC(=O)[C@H](CCC(N)=O)NC(=O)[C@H](C)NC(=O)C(C)(C)NC(=O)[C@H](C)NC(=O)C(C)(C)NC(=O)[C@@H]1CCCN1C(=O)C(C)(C)NC(C)=O)C(C)C)C(C)C)C(=O)N[C@@H](CCC(N)=O)C(=O)N[C@@H](CCC(N)=O)C(=O)N[C@H](CO)Cc1ccccc1", "measure": "growth", "data value": "17.4% [4.25 µM] (inactive)"}
{"molecule": "CCOC(=O)/C(F)=C/C1CC1C1CCCCC1 (stereo unspecified)", "measure": "growth", "data value": "111% (inactive)"}

Provide growth values for the following items, in order.
1. Oc1ccc(CSc2nnc(-c3ccncc3)n2-c2ccccc2)c2cccnc12
2. CCOC(=O)c1c(Nc2ccccc2)nn2c(-c3ccc(Br)cc3)ccnc12
3. CNC(=O)c1c(NC(=O)c2ccc(F)cc2F)sc2c1CCC(=O)C2

Response given:
1: 96% (inactive); 2: 76.7% (inactive); 3: 12.8% (inactive)
